Tested On: Fibroblast growth factor 10 (Homo sapiens) (UniProt O15520)
Sequence (O15520 whole entry, looked up): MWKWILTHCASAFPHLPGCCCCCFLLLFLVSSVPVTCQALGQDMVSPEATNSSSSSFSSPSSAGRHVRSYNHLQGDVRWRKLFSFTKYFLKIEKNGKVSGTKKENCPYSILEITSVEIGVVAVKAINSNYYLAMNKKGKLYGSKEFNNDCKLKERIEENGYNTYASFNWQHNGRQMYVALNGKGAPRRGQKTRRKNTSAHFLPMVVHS
Assay Summary: FGF10 binders on small-molecule microarrays, primary screen, biochemical, small-molecule microarray, 635 nm fluorescence (AID 1102)
Details: FGF10 binding, fluorescence 635 nm, higher = more signal
Experimental Readout: composite z-score
No unit in the answer, please; the number alone is enough.

Query block: Recorded composite z-score of CC(=O)NCCCC[C@@H]1NC(=O)[C@@H]2C[C@H](C(=O)NCc3ccc(F)cc3)[C@H](c3cccc(OCCO)c3)N2C1=O , please.
Result block: 0.0733

Query block: Recorded composite z-score of COCCOC(=O)N1C(=O)[C@@]2(c3cc(C#CCNC(N)=O)ccc31)[C@H](c1ccc(OCCO)cc1)N1[C@H](c3ccccc3)[C@H](c3ccccc3)OC(=O)[C@H]1[C@@H]2C(=O)N1CCCCCCC1 , please.
Result block: 0.198

Query block: Recorded composite z-score of N#Cc1ccc(NN2C(C(O)CCc3ccccc3)C=CC3C(=O)N(c4ccccc4)C(=O)C32)cc1 (configuration not stated) , please.
Result block: 0.25

Query block: Recorded composite z-score of C#CCCCON=C1C[C@@H](O)[C@@H](O)[C@@H]2[C@@H]3C(=O)N(Cc4ccc5c(c4)OCO5)C(=O)[C@@H]3CC[C@@H]12 , please.
Result block: 0.42

Query block: Recorded composite z-score of COc1ccc(C(=O)Nc2ccc(CN3C(=O)[C@]4(O[C@H](CCn5cc(CCO)nn5)[C@@H]([Si](C)(C)c5ccc(OC)cc5)[C@@H]4C)c4ccccc43)cc2)cc1 , please.
Result block: 0.898

Query block: Recorded composite z-score of Cc1ccc(S[C@]2(C(=O)NCCN3CCOCC3)CC(=O)N(C3Cc4ccccc4C3)[C@@H]2c2ccc(CO)cc2I)cc1 , please.
Result block: -0.303

Query block: Recorded composite z-score of CCN1C(C)=C(C(=O)OC)[C@@H](c2ccccc2)N2C(=O)[C@](O)(C(=O)OC)[C@@H](c3ccccc3)C(C(=O)c3ccccc3)=C12 , please.
Result block: 0.436

Query block: Recorded composite z-score of CCN1C(C)=C(C(=O)OC)[C@@H](c2ccccc2)N2C(=O)[C@@]3(C(=O)OC)O[C@@]12[C@@H]1C(=O)N(C)C(=O)[C@@H]13 , please.
Result block: 1.25

Query block: Recorded composite z-score of CO[C@H]1O[C@H](CO)[C@@H](OC(=O)Nc2ccc(Oc3ccccc3)cc2)[C@H](OC(=O)Nc2ccccc2-c2ccccc2)[C@H]1OC(=O)Nc1ccccc1-c1ccccc1 , please.
Result block: 1.14

Query block: Recorded composite z-score of O=C(O)[C@@H]1Cc2c([nH]c3ccccc23)[C@@H](c2ccccc2)N1 , please.
Result block: 0.315

Query block: Recorded composite z-score of O=C/C=C/c1ccc(/C=C/c2ccccc2)cc1 , please.
Result block: -0.77

Query block: Recorded composite z-score of Cc1ccc([C@@H]2CC=C(C(=O)O)[C@H](c3ccccc3)N2S(=O)(=O)c2ccc(C)cc2)cc1 , please.
Result block: 1.24

Query block: Recorded composite z-score of CO[C@H]1O[C@H](CO)[C@@H](OC(=O)Nc2ccc3c(c2)OCO3)[C@H](OC(=O)Nc2ccccc2)[C@@H]1OC(=O)Nc1ccccc1 , please.
Result block: 1.46

Query block: Recorded composite z-score of CCCCCCc1nc(C2CC2)c(C)c2c1[Si](C(C)C)(C(C)C)OC2 , please.
Result block: -0.391

Query block: Recorded composite z-score of O=C1c2ccccc2[C@@]2(Cc3ccccc3N(CC(F)(F)F)C2=O)[C@H](c2ccc(CO)cc2)N1C1CCCCC1 , please.
Result block: 0.982

Query block: Recorded composite z-score of C=CCC(OC(C)=O)[C@@H]1[C@@H](N(Cc2ccc(-c3ccccc3)cc2)C(=O)c2ccc(C)cc2)c2cc(OCCCO)ccc2N1C(=O)c1ccc(-c2ccccc2)cc1 (some centres not stated) , please.
Result block: 0.104

Query block: Recorded composite z-score of CO[C@H]1COC(=O)CC=C[C@H](C)COC(=O)[C@@H](OCc2ccccc2)C=C[C@@H]1C , please.
Result block: 0.429
